# system-name: T1, 4H94-AA
# T1 chain: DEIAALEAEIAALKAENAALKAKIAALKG
# experimental-protocol: two-hybrid library CCmax;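 also: natural log of median RNA to DNA barcode read ratio; higher means stronger binding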
# experimental-conditions: mean of both orientations
measurement-label: interaction score

# binder, interaction score
records = [
    ("DEIAALEAKNAALKAKIAALEAKIAALEG [4H485-AA]", -1.46),
]

A. DKNAALEAKIAALKAEIAALEAENAALEG [4H3395-AA]
B. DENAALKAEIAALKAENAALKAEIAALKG [4H1626-AA]
C. DEIAALEAKNAALKAEIAALKAEIAALKG [4H458-AA]
Task item: Output the entries ranked by interaction score from maximum down to minimum. Write the labels out in the order the request specifies.
Reply: B, A, C
